target: IL-23 (human, p19/p40 heterodimer) (Homo sapiens, UniProt Q9NPF7;P29460 SEQ:20-189,SEQ:23-328); experiment: filter; 1X PBS, tRNA, ssDNA, BSA, 30 min RT; conditions: tags: R&D Systems, carrier free; label: 5'-32P
Sequence (Q9NPF7 20-189, chain 1 of 2): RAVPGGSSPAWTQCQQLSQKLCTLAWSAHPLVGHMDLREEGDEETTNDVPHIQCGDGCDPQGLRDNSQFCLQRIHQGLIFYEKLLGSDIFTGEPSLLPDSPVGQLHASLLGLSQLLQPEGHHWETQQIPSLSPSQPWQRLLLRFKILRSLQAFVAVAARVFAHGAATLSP
Sequence (P29460 23-328, chain 2 of 2): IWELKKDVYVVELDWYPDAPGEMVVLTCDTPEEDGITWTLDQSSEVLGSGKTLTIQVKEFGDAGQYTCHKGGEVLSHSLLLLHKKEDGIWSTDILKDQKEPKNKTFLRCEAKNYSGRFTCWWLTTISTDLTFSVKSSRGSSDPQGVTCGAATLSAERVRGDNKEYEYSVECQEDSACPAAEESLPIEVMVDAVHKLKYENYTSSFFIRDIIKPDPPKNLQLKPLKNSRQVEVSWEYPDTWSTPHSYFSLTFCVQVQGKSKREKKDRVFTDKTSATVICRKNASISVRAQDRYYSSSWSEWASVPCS
pKd: −log10 of the molar value.

- BINDER: "ACAGCGCCGGUGGGCGGGCAUUGGGUGGAUGCGCUGU (mixed, 2'-deoxy A and G, 2'-OMe C and U (dRmY)) [ARC527]"
  pKd: 7.90
